Kindly state T/C for each of the entries shown.
# Test system: P388 leukemia ip, CD2F1 mice, survival T/C
# test.protocol: NCI In Vivo Anticancer Drug Screen. Data for tumor model P388 Leukemia (intraperitoneal) in CD2F1 (CDF1) mice
# measurement.parameters: endpoint: median survival time; dose: 60.0 mg/kg/injection; schedule: Q01DX005 (ip); vehicle: saline with Tween-80; higher = longer survival
Inconclusive results and toxic doses are left out.

Field: example entries. Status: answers known.
- molecule: "C=CCSc1nnc(-c2ccc(C(C)(C)C)cc2)n1-c1cccc(C(F)(F)F)c1"
  T/C: "100 % of control"
- molecule: "O=C1C=CSc2ccccc2N1"
  T/C: "110 % of control"
- molecule: "Cc1cc2c(cc1C)NC1=C(N2)OC(c2ccc(Cl)cc2)C1=O (stereo not drawn)"
  T/C: "92 % of control"

Consider the following items and state reported T/C for each.
1. CCn1c2ccc(N(C)C)cc2c2cc(N(C)C)ccc21
2. O/N=C(\c1ccccc1)C1c2ccccc2-c2ccccc21
3. CC(C)CN1C(=O)C2C3CCC(O3)C2C1=O (stereo not drawn)
4. C/C(CC(N)=O)=C1\C(=O)NN(c2ccccc2)C1=O
5. O=C(Nc1ccc(Cl)cc1)Oc1ccc(Cl)cc1C(=O)c1ccccc1
6. O=C(CC1(O)C(=O)Nc2ccccc21)c1cccc2ccccc12 (stereo not drawn)

Out:
["99 % of control", "94 % of control", "91 % of control", "108 % of control", "111 % of control", "110 % of control"]

Consider the following items and state reported T/C for each.
1. COc1nc2[nH]ccc2c(=O)n1C
2. BrC1C2CCC3OC3C12 (stereo not drawn)
3. COC(=O)C(=O)C1CCc2c(C(=O)OC)nc3nnc(N)n3c21 (stereo not drawn)
4. NNC(=O)c1nnc(N)o1

Out:
1. 101 % of control
2. 104 % of control
3. 94 % of control
4. 106 % of control

====

Kindly state T/C for each of the entries shown.
# Tested on: P388 leukemia ip, CD2F1 mice, survival T/C
# test.protocol: NCI In Vivo Anticancer Drug Screen. Data for tumor model P388 Leukemia (intraperitoneal) in CD2F1 (CDF1) mice
# measurement.parameters: endpoint: median survival time; dose: 200.0 mg/kg/injection; schedule: Q01DX009 (ip); vehicle: Klucel (hydroxypropylcellulose) (HPC); higher = longer survival
Toxic doses and inconclusive results are not listed.

Field: example entries. Status: answers known.
- molecule: "CCOC(=O)N/N=C/c1ccc(N(C)CCC#N)cc1"
  test.target: "P388 leukemia ip, CD2F1 mice, survival T/C"
  T/C: "90 % of control"
- molecule: "OCc1nc2ccccc2[nH]1"
  test.target: "P388 leukemia ip, CD2F1 mice, survival T/C"
  T/C: "114 % of control"
- molecule: "CCOC(=O)c1cc(Cl)cc2c(=O)c3c([nH]c12)C(=O)c1c([nH]c2c(C(=O)OCC)cc(Cl)cc2c1=O)C3=O"
  test.target: "P388 leukemia ip, CD2F1 mice, survival T/C"
  T/C: "98 % of control"
- molecule: "N#CCCCCCN1CCN(c2cccc(Cl)c2)CC1"
  test.target: "P388 leukemia ip, CD2F1 mice, survival T/C"
  T/C: "96 % of control"
- molecule: "O=C1OCCOCCOCCOCCOCCOC(=O)C1c1ccccc1"
  test.target: "P388 leukemia ip, CD2F1 mice, survival T/C"
  T/C: "100 % of control"
- molecule: "CCc1c(C)c(SC)n(C)c(=O)c1C#N"
  test.target: "P388 leukemia ip, CD2F1 mice, survival T/C"
  T/C: "91 % of control"

Consider the following items and state reported T/C for each.
1. CC1CN2C(=O)NC(=O)C1(c1ccccc1)C2=O (configuration not stated)
2. CC(C)(C)C1CCC(P(C)(C)=S)CC1 (configuration not stated)
3. COc1cc(C=O)cc(Br)c1O
4. Cn1/c(=N\N)sc2ccc(S(=O)(=O)O)cc21
5. CCOC(=O)C1=C(C)NC(C)=C(C(=O)OCC)C1c1ccccn1
6. O=C1NCC(N2C(=O)CC3(CCCC3)C2=O)O1 (configuration not stated)

Out:
1. 97 % of control
2. 97 % of control
3. 105 % of control
4. 105 % of control
5. 96 % of control
6. 91 % of control

====

Kindly state T/C for each of the entries shown.
# System: P388 leukemia ip, CD2F1 mice, survival T/C
# test.protocol: NCI In Vivo Anticancer Drug Screen. Data for tumor model P388 Leukemia (intraperitoneal) in CD2F1 (CDF1) mice
# measurement.parameters: endpoint: median survival time; dose: 200.0 mg/kg/injection; schedule: Q01DX001 (ip); vehicle: Klucel (hydroxypropylcellulose) (HPC); higher = longer survival
Toxic doses and inconclusive results are not listed.

Field: example entries. Status: answers known.
- compound: "CN(CC(O)C(O)CN(C)N=O)N=O (centres undefined)"
  test.target: "P388 leukemia ip, CD2F1 mice, survival T/C"
  assay.metric: "T/C"
  test.value: "94 % of control"
- compound: "CCOC(=O)Cn1c(O)c(C2=c3cc(Br)ccc3=NC2=O)sc1=O"
  test.target: "P388 leukemia ip, CD2F1 mice, survival T/C"
  assay.metric: "T/C"
  test.value: "98 % of control"
- compound: "CCOC(=O)C(N=Nc1nn[nH]n1)c1ncn[nH]1 (centres undefined)"
  test.target: "P388 leukemia ip, CD2F1 mice, survival T/C"
  assay.metric: "T/C"
  test.value: "91 % of control"
- compound: "S=c1nnn(C2CCCN2)[nH]1 (centres undefined)"
  test.target: "P388 leukemia ip, CD2F1 mice, survival T/C"
  assay.metric: "T/C"
  test.value: "97 % of control"
- compound: "COc1ccc(SSc2ccc(OC)n[n+]2[O-])[n+]([O-])n1"
  test.target: "P388 leukemia ip, CD2F1 mice, survival T/C"
  assay.metric: "T/C"
  test.value: "111 % of control"
- compound: "COc1ccc(C(=O)Cc2cc(OC)c(OC)cc2Br)cc1OC"
  test.target: "P388 leukemia ip, CD2F1 mice, survival T/C"
  assay.metric: "T/C"
  test.value: "101 % of control"
- compound: "O=C(SCNS(=O)(=O)c1ccccc1)c1ccccc1"
  test.target: "P388 leukemia ip, CD2F1 mice, survival T/C"
  assay.metric: "T/C"
  test.value: "113 % of control"
- compound: "CS(=O)(=O)OCC1OCC(OS(C)(=O)=O)C1O (centres undefined)"
  test.target: "P388 leukemia ip, CD2F1 mice, survival T/C"
  assay.metric: "T/C"
  test.value: "101 % of control"

As a next step, examine the compound that follows.
In: Report T/C for CCCc1cccc2c3c([nH]c12)C(CC)(CC(=O)O)OCC3 (centres undefined) please.
Out: 96 % of control

====

# Test system: P388 leukemia ip, CD2F1 mice, survival T/C
# test.protocol: NCI In Vivo Anticancer Drug Screen. Data for tumor model P388 Leukemia (intraperitoneal) in CD2F1 (CDF1) mice
# measurement.parameters: endpoint: median survival time; dose: 10.0 mg/kg/injection; schedule: Q01DX009 (ip); vehicle: saline with Tween-80; higher = longer survival
Toxic doses and inconclusive results are not listed.
Kindly state T/C for each of the entries shown.

Field: example entries. Status: answers known.
- compound: "COC(=O)C12Oc3ccc(-c4ccc5c(c4O)C(O)=C4C(=O)CC(C)C(O)C4(C(=O)OC)O5)c(O)c3C(O)=C1C(=O)CC(C)C2O (centres undefined)"
  T/C: "105 % of control"
- compound: "O=C1C=C(C/C=C/c2ccccc2)C(C/C=C/c2ccccc2)C=C1O (centres undefined)"
  T/C: "94 % of control"
- compound: "COc1cc(C=Nc2cc(Br)cc(Br)c2)ccc1N(CCCl)CCCl"
  T/C: "110 % of control"

As a next step, examine the compound that follows.
In: Report T/C for `Cc1c(C)c(Cl)c(C)c(C)c1Cl` please.
Out: 100 % of control

====

# System: P388 leukemia ip, CD2F1 mice, survival T/C
# test.protocol: NCI In Vivo Anticancer Drug Screen. Data for tumor model P388 Leukemia (intraperitoneal) in CD2F1 (CDF1) mice
# measurement.parameters: endpoint: median survival time; dose: 100.0 mg/kg/injection; schedule: Q01DX005 (ip); vehicle: Klucel (hydroxypropylcellulose) (HPC); higher = longer survival
Inconclusive results and toxic doses are left out.
assay.metric: T/C

- compound: "CCCCNC(=O)C(C)OC(=O)C(CC)CCCC (centres undefined)"
  test.target: "P388 leukemia ip, CD2F1 mice, survival T/C"
  T/C: "102 % of control"

Consider the following items and state reported T/C for each.
1. O=C1C=C(O)C2CCCCC2N1 (centres undefined)
2. Cc1nc2ncn(-c3ccccc3)c2c(=O)n1Cc1ccco1
3. CC1(C)CC(Nc2ccccc2)=CC(=S)N1
4. S=C(Nc1ccccc1)Nc1ncn[nH]1
5. Cc1ccc(/C=C2\SC(=S)N(C3CC3)C2=O)cc1
6. C/C=C(\C)C(=O)N/N=C\C=C\c1ccccc1
7. O=C1CCCc2cc3c(nc21)C(=O)CCC3

Out:
95 % of control
103 % of control
103 % of control
100 % of control
95 % of control
89 % of control
100 % of control

In: Report T/C for `Cc1ccnc(NS(=O)(=O)c2ccc(NC(=O)Nc3ccc(Cl)c(C(F)(F)F)c3)cc2)n1` please.
Out: 104 % of control
